Ref: PubChem BioAssay (EPA / NIEHS)

# SUBJECT_OF_TEST: rat Adrenergic Receptor, Beta (Adrb), Non-selective Binding, Adrb1 (gene 24925)
# PROTOCOL: NVS_GPCR_rAdrb_NonSelective: NovaScreen (NVS) G Protein-Coupled Receptor Assay for rat Adrenergic Receptor, Beta (Adrb), Non-selective Binding (AID 2283298)
Inconclusive results are not listed. The source made the active and inactive calls. How the source made its calls: active means hit-call score of the fitted dose curve at least 0.9, where 1 is the maximum; inconclusive means response in the unintended direction; inactive means score below 0.9.
Respond using exactly one of the listed classes: TRUE = active, FALSE = inactive

Use these answered entries as a reference point.
# CHEMICAL_STRING, LABEL
measured = [
    ("CCOC(=O)[C@]1(c2ccccc2)Oc2ccccc2[C@@H]1N", "TRUE"),
    ("O=Cc1ccco1", "FALSE"),
    ("Cc1cc(N=Nc2ccccc2C)ccc1N", "FALSE"),
]

--- query ---
Incoming: What did this assay record as the result for `CCC[CH2][Sn]([Cl])([CH2]CCC)[CH2]CCC` ?
Outgoing: TRUE

###

# Read-out: serum amyloid A (SAA), SAA1 (gene 6288)
# PROTOCOL: BSK_CASM3C_SAA: BioMAP Diversity Plus: CASM3C Assay for serum amyloid A (SAA) Biomarker Activity (AID 2283049);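 further: SAA protein level quantified by ELISA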
# CONDITION_PARAMETERS: primary human coronary artery smooth muscle cells; actives raise or lower the signal
Activity calls are given as the source filed them. The calls were made as follows: active = hit-call score of the fitted dose curve at least 0.9, where 1 is the maximum; inactive = score below 0.9.
Your answer must be one of the following: class 1 (active), class 0 (inactive)

These solved cases illustrate the format of a correct answer.
# MOLECULE, LABEL
data = [
    ("Brc1ccc(Oc2ccccc2)cc1", "class 0"),
    ("Cc1cc(N=Nc2ccccc2C)ccc1N", "class 0"),
    ("Cc1ccc([N+](=O)[O-])cc1", "class 0"),
    ("CCC[CH2][Sn]([Cl])([CH2]CCC)[CH2]CCC", "class 1"),
]

Incoming: Identify the outcome logged in this assay for the molecule shown: `Nc1ccc(Cc2ccc(N)cc2)cc1`
Outgoing: class 0

Incoming: Called result for `O=[N+]([O-])c1ccc(Oc2ccc(Cl)cc2Cl)cc1`
Outgoing: class 0

Incoming: What classification did `CN(C)[C@@H]1C(=O)C(C(N)=O)=C(O)[C@@]2(O)C(=O)C3=C(O)c4c(O)cccc4[C@@](C)(O)[C@H]3C[C@@H]12` end up with in this test?
Outgoing: class 0

Incoming: Outcome? `Oc1ccccc1Cl`
Outgoing: class 0

Incoming: Which outcome did this test record for the molecule `CCCCCOC(=O)c1ccccc1C(=O)OCCCCC` ?
Outgoing: class 0

Incoming: Could you check what this test reported for CCC(C)c1ccc(O)cc1 (centres undefined) ?
Outgoing: class 0

Incoming: # outcome recorded in this test, key = `CO[C@@H]1[C@H](OC(=O)NC(=O)CCl)CC[C@]2(CO2)[C@H]1[C@@]1(C)O[C@@H]1CC=C(C)C`
Outgoing: class 0

Incoming: Outcome? `[O-][Cl+]O`
Outgoing: class 0

Incoming: Look up the recorded call for `CC(C)N(Cc1ccccc1)C(=O)C(C)(C)C` in this test.
Outgoing: class 0

Incoming: Can you look up the reported call for ClC1=C(Cl)C2(Cl)C3C(Cl)C=CC3C1(Cl)C2(Cl)Cl (centres undefined) for me?
Outgoing: class 1

###

# System: Thyroperoxidase (TPO), gene 445522
# PROTOCOL: CCTE_Simmons_GUA_TPO: CCTE's Guaiacol Assay for Thyroperoxidase (TPO) Inhibition, Simmons Lab (AID 2283750)
Inconclusive results are not listed. Calls of active or inactive are those of the source. How the source made its calls: active means hit-call score of the fitted dose curve at least 0.9, where 1 is the maximum; inconclusive means response in the unintended direction; inactive means score below 0.9.
The reply should be one of these categories: active, inactive

# CHEMICAL_STRING, SUBJECT_OF_TEST, LABEL
data = [
    ("Nc1ccc(Cc2ccc(N)cc2)cc1", "Thyroperoxidase (TPO), gene 445522", "active"),
    ("Nc1ccc(Oc2ccc(N)cc2)cc1", "Thyroperoxidase (TPO), gene 445522", "active"),
    ("COP(=S)(OC)SCN1C(=O)c2ccccc2C1=O", "Thyroperoxidase (TPO), gene 445522", "inactive"),
]

Consider now this further molecule.
Incoming: Record lookup: outcome of this test for `[Cl-].[Cl-].[Hg+2]` ?
Outgoing: active

###

# PROTOCOL: ACEA_ER_AUC_viability: ACEA Biosciences xCELLigence Real-Time Cell Analysis on Estrogen Receptor Agonism for Viability (AID 2283782);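 further: continuous compound exposure with impedance area under curve over 80 h; hit means loss of impedance signal meaning reduced cell growth or viability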
Records with an inconclusive call do not appear. Active and inactive are the calls of the source. The calls were made as follows: active = hit-call score of the fitted dose curve at least 0.9, where 1 is the maximum; inconclusive = response in the unintended direction; inactive = score below 0.9.
METRIC: AC50

Example compounds with recorded AC50:
# COMPOUND, AC50
rows = [
    ("CCOC(=O)[C@]1(c2ccccc2)Oc2ccccc2[C@@H]1N", "inactive"),
    ("ClC1=C(Cl)C2(Cl)C3C(Cl)C=CC3C1(Cl)C2(Cl)Cl (stereo unspecified)", "50 µM (active)"),
    ("ClC1=C(Cl)[C@]2(Cl)[C@H]3[C@H]([C@@H]4C=C[C@H]3C4)[C@@]1(Cl)C2(Cl)Cl", "74.5 µM (active)"),
    ("[Cl-].[Cl-].[Hg+2]", "16.9 µM (active)"),
    ("C=CCc1ccc2c(c1)OCO2", "inactive"),
]

Entry O=C(O)C1C2CCC(O2)C1C(=O)O (stereo unspecified) , AC50 reported as 21.9 µM (active)

###

# SUBJECT_OF_TEST: human Adenosine A2a Receptor (AdoRA2a), ADORA2A (gene 135) (UniProt P29274)
# Sequence (P29274 whole entry, looked up): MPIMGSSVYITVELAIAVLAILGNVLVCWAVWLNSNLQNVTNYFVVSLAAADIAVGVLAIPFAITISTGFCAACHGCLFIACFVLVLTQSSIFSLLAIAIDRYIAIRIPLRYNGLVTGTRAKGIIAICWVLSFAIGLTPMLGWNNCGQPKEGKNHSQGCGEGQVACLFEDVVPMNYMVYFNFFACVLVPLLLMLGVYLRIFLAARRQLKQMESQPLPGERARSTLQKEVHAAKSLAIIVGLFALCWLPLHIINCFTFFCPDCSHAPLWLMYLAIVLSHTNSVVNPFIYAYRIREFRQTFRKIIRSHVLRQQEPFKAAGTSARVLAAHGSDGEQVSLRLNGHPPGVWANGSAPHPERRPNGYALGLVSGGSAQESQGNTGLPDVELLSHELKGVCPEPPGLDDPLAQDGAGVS
# PROTOCOL: NVS_GPCR_hAdoRA2a: NovaScreen (NVS) G Protein-Coupled Receptor Assay for human Adenosine A2a Receptor (AdoRA2a) (AID 2283256)
Results filed as inconclusive are left out. Active and inactive are the calls of the source. The calls were made as follows: active = hit-call score of the fitted dose curve at least 0.9, where 1 is the maximum; inconclusive = response in the unintended direction; inactive = score below 0.9.
Examples of molecules with documented AC50 follow.

Check out these entries, answers already filled in.
# CHEMICAL_STRING, AC50
records = [
    ("Nc1ccc(Cl)cc1N", "2.4 µM (active)"),
    ("CC(C)(O)c1cnn2c(-c3ccc(F)c(-c4c(F)cccc4C#N)c3)cnc2n1", "0.0738 µM (active)"),
    ("CCC[CH2][Sn]([Cl])([CH2]CCC)[CH2]CCC", "6.46 µM (active)"),
]

In the following, a different molecule is considered.
Notebook: `CCNS(=O)(=O)C(F)(F)C(F)(F)C(F)(F)C(F)(F)C(F)(F)C(F)(F)C(F)(F)C(F)(F)F` , AC50 read as 14.5 µM (active)

###

# Test system: rat Norepinephrine Transporter (NET), gene 83511
# PROTOCOL: NVS_TR_rNET: NovaScreen (NVS) Transporter Assay for rat Norepinephrine Transporter (NET) (AID 2283373)
Results filed as inconclusive are left out. Calls of active or inactive are those of the source. Rule for the calls: active = hit-call score of the fitted dose curve at least 0.9, where 1 is the maximum; inconclusive = response in the unintended direction; inactive = score below 0.9.
Answer with one of the outcomes Yes for active, No for inactive

Worked set:
# COMPOUND, LABEL
records = [
    ("CCOC(=O)[C@]1(c2ccccc2)Oc2ccccc2[C@@H]1N", "Yes"),
    ("CCC[CH2][Sn]([Cl])([CH2]CCC)[CH2]CCC", "Yes"),
    ("CCC(C)c1ccc(O)cc1 (stereo not given)", "No"),
    ("Nc1ccc(Cc2ccc(N)cc2)cc1", "No"),
]

Could you now consider this next compound?
Incoming: Each compound tested received a call. Report the one for `O=C(N[C@H](c1ccccc1)[C@@H]1CN2CCC1CC2)c1c(Cl)ccc(C(F)(F)F)c1Cl` .
Outgoing: Yes

###

# PROTOCOL: CEETOX_H295R_DOC: CeeTox H295R High-throughput Steroidogenesis Assay for DOC (AID 2283439)
# CONDITION_PARAMETERS: actives raise or lower the signal
The source made the active and inactive calls. The calls were made as follows: active = hit-call score of the fitted dose curve at least 0.9, where 1 is the maximum; inactive = score below 0.9.
Classes to choose from: active, inactive

Here are 6 compounds together with their reported answers.
# COMPOUND, LABEL
records = [
    ("Nc1ccc(Cc2ccc(N)cc2)cc1", "active"),
    ("O=P(OCCCl)(OCCCl)OCCCl", "inactive"),
    ("CCC(C)c1ccc(O)cc1 (stereo not drawn)", "inactive"),
    ("CC(C)(O)c1cnn2c(-c3ccc(F)c(-c4c(F)cccc4C#N)c3)cnc2n1", "inactive"),
    ("Cc1cccc(N)c1N", "inactive"),
    ("CCCCCOC(=O)c1ccccc1C(=O)OCCCCC", "inactive"),
]

Incoming: Field: outcome | Entry: `Cn1cc(-c2ccccc2)c(=O)c(-c2cccc(C(F)(F)F)c2)c1`
Outgoing: inactive

Incoming: # fetch the recorded call for `Nc1ccc(N=Nc2ccccc2)cc1` here
Outgoing: active

###

# PROTOCOL: ATG_PXRE_CIS: Attagene CIS-FACTORIAL HepG2 Assay for human Pregnane X Receptor Element (PXRE) (AID 2282957)
# CONDITION_PARAMETERS: HepG2 Attagene CIS-FACTORIAL PXRE reporter, mRNA; actives raise or lower the signal
Calls of active or inactive are those of the source. How the source made its calls: active means hit-call score of the fitted dose curve at least 0.9, where 1 is the maximum; inactive means score below 0.9.
Select the matching outcome among active, inactive

# MOLECULE, LABEL
measured = [
    ("CC(C)(O)c1cnn2c(-c3ccc(F)c(-c4c(F)cccc4C#N)c3)cnc2n1", "active"),
]

Incoming: // param item: `Cn1cc(-c2ccccc2)c(=O)c(-c2cccc(C(F)(F)F)c2)c1` ; yields the recorded call
Outgoing: active

Incoming: Name the outcome recorded for `CC(C)COC(=O)c1ccccc1C(=O)OCC(C)C` in the assay.
Outgoing: active

Incoming: Please let me know the test result on file for `[As]#[In]` .
Outgoing: active

Incoming: Recorded test call requested for `CN(C)[C@@H]1C(=O)C(C(N)=O)=C(O)[C@@]2(O)C(=O)C3=C(O)c4c(O)cccc4[C@@](C)(O)[C@H]3C[C@@H]12`
Outgoing: active

Incoming: Field: outcome | Entry: `ClCCOCCCl`
Outgoing: inactive

Incoming: Tell me the assay call for `Nc1ccc(Cc2ccc(N)cc2)cc1` please.
Outgoing: inactive

Incoming: // param item: `CN(C)C(=O)Nc1ccc(Cl)cc1` ; yields the recorded call
Outgoing: inactive

Incoming: Short answer needed: outcome of this test for `Cc1ccc(N)cc1` ?
Outgoing: inactive

Incoming: I would be grateful if you could indicate the recorded call for `Clc1ccccc1Cl` .
Outgoing: inactive

Incoming: // param item: `C=CCc1ccc2c(c1)OCO2` ; yields the recorded call
Outgoing: inactive

Incoming: Kindly provide the recorded test outcome for the following molecule: c1ccc(C2CO2)cc1 (stereo not given)
Outgoing: active

Incoming: // return assay outcome for `CN(C)c1ccccc1`
Outgoing: inactive

Incoming: How did this test come out for `CCOC(=O)[C@]1(c2ccccc2)Oc2ccccc2[C@@H]1N` ?
Outgoing: active

Incoming: Would you mind telling me which call this test gave `Cc1ccc(N)c(N)c1` ?
Outgoing: inactive
